Target: T1, recombinant soluble murine C4.4a (mouse, UniProt Q91YK8 33-343, limits assumed)
T1 construct: also called mouse C4.4a; mC4.4a
T1 sequence (looked up): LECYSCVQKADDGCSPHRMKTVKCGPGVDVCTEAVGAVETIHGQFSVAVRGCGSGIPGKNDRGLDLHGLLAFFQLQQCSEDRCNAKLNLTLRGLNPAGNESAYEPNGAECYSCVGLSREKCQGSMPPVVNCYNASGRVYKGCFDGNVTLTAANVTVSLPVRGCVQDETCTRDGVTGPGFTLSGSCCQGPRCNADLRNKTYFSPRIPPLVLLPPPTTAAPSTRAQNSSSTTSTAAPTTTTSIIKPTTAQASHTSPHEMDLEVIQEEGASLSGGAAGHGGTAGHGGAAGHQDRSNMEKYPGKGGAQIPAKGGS
Experiment: SPR (Biacore T100), IgG1 captured by anti-human Fc, soluble C4.4a injected, 1:1 fit
For each record, check the reported Kd: if it is below 2 nM write t, else write f.

B01-3 (antibody, human IgG1, V domains shown, tested as human IgG1; also called B01-03) VH: EVQLLESGGGLVQPGGSLRLSCAASGFTFSNAWMSWVRQAPGKGLEWVSYISSSGSTIYYADSVKGRFTISRDNSKNTLYLQMNSLRAEDTAVYYCAREGLWAFDYWGQGTLVTVSS VL: ESVLTQPPSVSGAPGQRVTISCTGSSSNIGAGYVVHWYQQLPGTAPKLLIYDNNKRPSGVPDRFSGSKSGTSASLAISGLRSEDEADYYCAAWDDRLNGPVFGGGTKLTVLG
f
M31-B01 (antibody, human IgG1, V domains shown, tested as human IgG1) VH: EVQLLESGGGLVQPGGSLRLSCAASGFTFSNAWMSWVRQAPGKGLEWVSYISSSGSTIYYADSVKGRFTISRDNSKNTLYLQMNSLRAEDTAVYYCAREGLWAFDYWGQGTLVTVTS VL: QSVLTQPPSASGTPGQRVTISCTGSSSNIGAGYVVHWYQQLPGTAPKLLIYDNNKRPSGVPDRFSGSKSGTSASLAISGLRSEDEADYYCAAWDDRLNGPVFGGGTKLTVLG
f
B01-10 (antibody, human IgG1, V domains shown, tested as human IgG1) VH: EVQLLESGGGLVQPGGSLRLSCAASGFTFSSAWMSWVRQAPGKGLEWVSYISSSGSTIYYADSVKGRFTISRDNSKNTLYLQMNSLRAEDTAVYYCAREGLWAFDYWGQGTLVTVSS VL: QSVLTQPPSVSGAPGQRVTISCTGSSSNIGAGYVVHWYQQLPGTAPKLLIYDNNKRPSGVPDRFSGSKSGTSASLAISGLRSEDEADYYCAAYDDSLSGPVFGGGTKLTVLG
t

Next item in the queue.
I wonder whether B01-5 (antibody, human IgG1, V domains shown, tested as human IgG1; also called B01-05) VH: EVQLLESGGGLVQPGGSLRLSCAASGFTFSNAWMSWVRQAPGKGLEWVSYISSSGSTIYYADSVKGRFTISRDNSKNTLYLQMNSLRAEDTAVYYCAREGLWAFDYWGQGTLVTVSS VL: QSVLTQPPSVSGAPGQRVTISCTGSSSNIGAGYVVHWYQQLPGTAPKLLIYDNNKRPSGVPDRFSGSKSGTSASLAISGLRSEDEADYYCAAYDDSLSGPVFGGGTKLTVLG has Kd below 2 nM. Can you tell?
f
